// reported inhibition at 12.5 µM for each item listed
- TGT: human mGlu4 receptor (Homo sapiens, UniProt Q14833)
- Construct: expressed in transfected cells; host or cells: AV12 cells, co-expressing rat EAAT1 and Galpha15
- Sequence (Q14833 33-912): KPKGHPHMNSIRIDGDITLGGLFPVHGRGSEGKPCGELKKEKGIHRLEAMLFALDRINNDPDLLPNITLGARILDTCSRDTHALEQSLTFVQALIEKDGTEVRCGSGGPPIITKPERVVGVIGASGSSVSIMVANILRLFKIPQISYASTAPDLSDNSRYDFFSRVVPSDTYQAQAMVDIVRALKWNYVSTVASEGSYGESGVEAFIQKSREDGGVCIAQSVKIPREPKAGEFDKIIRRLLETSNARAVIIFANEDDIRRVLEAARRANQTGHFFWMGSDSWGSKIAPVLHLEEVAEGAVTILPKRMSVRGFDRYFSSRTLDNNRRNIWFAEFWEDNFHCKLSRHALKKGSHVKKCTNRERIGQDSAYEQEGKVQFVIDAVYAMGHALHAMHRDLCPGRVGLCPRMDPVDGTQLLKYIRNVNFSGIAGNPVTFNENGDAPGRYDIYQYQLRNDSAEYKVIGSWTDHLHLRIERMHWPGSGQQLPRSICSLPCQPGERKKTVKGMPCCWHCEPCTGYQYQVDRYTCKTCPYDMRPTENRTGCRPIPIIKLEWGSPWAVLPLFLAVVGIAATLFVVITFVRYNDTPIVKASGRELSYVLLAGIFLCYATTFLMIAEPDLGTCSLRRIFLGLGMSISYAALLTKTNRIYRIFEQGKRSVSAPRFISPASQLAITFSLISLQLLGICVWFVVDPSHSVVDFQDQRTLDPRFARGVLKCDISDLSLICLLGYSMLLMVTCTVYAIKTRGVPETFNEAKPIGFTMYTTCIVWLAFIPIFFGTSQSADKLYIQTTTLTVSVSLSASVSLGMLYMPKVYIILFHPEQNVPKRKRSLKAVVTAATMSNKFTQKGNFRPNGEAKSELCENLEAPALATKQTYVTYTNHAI
- ASSAY INFO: FLIPR calcium assay for mGlu receptor selectivity, mGlu4 antagonist mode
- Assay type: cell-based
- STATED CONDITIONS: inhibition of EC90 glutamate response, read-out: mGlu4 % inhib. @12.5 μM
The answer is to be given in %; state only the numeric part.

# example entries with known answers
For the compound shown here, `N[C@]1(C(=O)O)[C@@H]2[C@@H](C(=O)O)[C@@H]2[C@H](O)[C@H]1OCc1ccc(Cl)c(Cl)c1` , give the reported inhibition at 12.5 µM.
28.5

Quick one: Cl.N[C@]1(C(=O)O)[C@@H]2[C@@H](C(=O)O)[C@@H]2[C@H](NC(=O)CO)[C@H]1OCc1ccc(Cl)c(Cl)c1 [Example 9, hydrochloride]
46.9

Consider the record given below.
For the compound shown here, Cl.Cn1cnc(S[C@H]2[C@H]3[C@H](C(=O)O)[C@H]3[C@](N)(C(=O)O)[C@@H]2OCc2ccc(Cl)c(Cl)c2)n1 [Example 7, hydrochloride] , give the reported inhibition at 12.5 µM.
32.2
